system: BCL2 F104I (Homo sapiens, UniProt P10415, F104I)
test.details: TR-FRET competitive binding assay, BCL2 F104I
measurement.conditions: Ki determined from IC50, read-out: TR_FRET EKI_Bcl2 F104I
Method: The relative binding potency of each compound was determined in a competitive binding assay using time resolved-fluorescence resonance energy transfer (TR-FRET). […] The degree of binding or corresponding compound inhibition can be quantified by the TR-FRET signal between the terbium donor and fluorescein acceptor. […] TR-FRET measurements were performed on a Biotek Synergy Neo plate reader. […] The TR-FRET signal was calculated as the emission-ratio at 520 nm over 495 nm. […]
pKi: −log10 of the molar value.
measurement.type: pKi

Sample answers from the record:
For COc1cccc(CC(=O)N2CCc3cc(-c4cc(C(=O)N(c5ccc(O)cc5)c5cc(C#N)n(C)c5C)c(C)n4C)c(C(=O)N4Cc5ccccc5C[C@H]4C)cc3C2)c1 the molecule record lists pKi as 8.59

For COc1ncc(N(C(=O)c2cc(-c3cc4c(cc3C(=O)N3Cc5ccccc5C[C@H]3C)CN(C(=O)Cc3ccc(OCCN5CCOCC5)cc3F)CC4)n(C)c2C)c2ccc(O)cc2)cc1F the molecule record lists pKi as 9.10

For Cc1c(N(C(=O)c2cc(-c3cc4c(cc3C(=O)N3Cc5ccccc5C[C@H]3CN3C[C@H]5C[C@H]5C3)CN(C(=O)Cc3ccc(OCCN5CCOCC5)cc3F)CC4)n(C)c2C)c2ccc(O)cc2)cc(C#N)n1C the molecule record lists pKi as 9.43

[A] Cc1c(N(C(=O)c2cc(-c3cc4c(cc3C(=O)N3Cc5ccccc5C[C@H]3C)CN(C(=O)Cc3ccc(OCCN5C[C@@H](C)O[C@@H](C)C5)cc3)CC4)n(C)c2C)c2ccc(O)cc2)cc(C#N)n1C
[B] Cc1c(N(C(=O)c2cc(-c3cc4c(cc3C(=O)N3Cc5ccccc5C[C@H]3CN3CCCC[C@@H]3C)CN(C(=O)Cc3ccc(OCCN5CCOCC5)cc3F)CC4)n(C)c2C)c2ccc(O)cc2)cc(C#N)n1C
Given the listed items, does A or B have the lesser reported pKi? Kindly give the label for the entry you pick.
A
(A: 9.34, B: 9.77)

* * *

system: BCLXL WT (Homo sapiens (Human))
Sequence (Q07817 other isoform, or with tags, fused parts or gaps): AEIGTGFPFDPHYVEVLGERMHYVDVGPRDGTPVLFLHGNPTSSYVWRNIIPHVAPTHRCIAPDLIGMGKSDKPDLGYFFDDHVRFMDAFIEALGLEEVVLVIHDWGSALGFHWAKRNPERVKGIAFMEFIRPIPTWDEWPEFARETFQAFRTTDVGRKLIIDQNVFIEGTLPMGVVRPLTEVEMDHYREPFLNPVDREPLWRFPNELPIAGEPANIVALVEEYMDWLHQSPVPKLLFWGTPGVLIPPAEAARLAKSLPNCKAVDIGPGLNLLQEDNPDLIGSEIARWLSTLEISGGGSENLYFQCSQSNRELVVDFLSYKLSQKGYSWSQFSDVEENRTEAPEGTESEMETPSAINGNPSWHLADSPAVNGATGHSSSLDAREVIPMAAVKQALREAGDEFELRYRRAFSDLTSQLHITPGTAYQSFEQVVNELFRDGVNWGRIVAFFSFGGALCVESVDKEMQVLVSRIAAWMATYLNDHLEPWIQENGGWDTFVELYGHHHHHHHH
test.details: TR-FRET competitive binding assay, BCLXL WT
measurement.conditions: ratio Ki BCLxL / Ki BCL2 WT
measurement.type: TR_FRET EKI BCLxL/WT selectivty ratio

Sample answers from the record:
For Cc1c(N(C(=O)c2cc(-c3cc4c(cc3C(=O)N3Cc5ccccc5C[C@H]3CN3CCCCC3)CN(C(=O)Cc3ccc(OCCC5COCCO5)cc3F)CC4)n(C)c2C)c2ccc(O)cc2)cc(C#N)n1C (single isomer, unassigned) [Example 174] the compound record lists TR_FRET EKI BCLxL/WT selectivty ratio as 38.8

For Cc1c(N(C(=O)c2cc(-c3cc4c(cc3C(=O)N3Cc5ccccc5C[C@H]3C)CN(C(=O)Cc3ccc(OCCN5CCC(O)CC5)cc3)CC4)n(C)c2C)c2ccc(O)cc2)cc(C#N)n1C the compound record lists TR_FRET EKI BCLxL/WT selectivty ratio as 11.6

[1] Cc1c(N(C(=O)c2cc(-c3cc4c(cc3C(=O)N3Cc5ccccc5C[C@H]3CN3CCCCC3)CN(C(=O)Cc3ccc(Cl)cc3F)CC4)n(C)c2C)c2ccc(O)cc2)cc(C#N)n1C
[2] COc1ncc(N(C(=O)c2cc(-c3cc4c(cc3C(=O)N3Cc5ccccc5C[C@H]3C)CN(C(=O)Cc3cccc(N5CC6(CN(C)C6)C5)c3)CC4)n(C)c2C)c2ccccc2)cc1F
[3] Cc1c(C(=O)N(c2ccc(F)cc2)c2cnn(C)c2)cc(-c2cc3c(cc2C(=O)N2Cc4ccccc4C[C@H]2C)CN(C(=O)Cc2ccc(OCCN4CCOCC4)cc2)CC3)n1C
Task field, ranking: reported TR_FRET EKI BCLxL/WT selectivty ratio, descending order. Answer format: the labels, ordered as requested.
3, 2, 1

* * *

system: BCL2 G101V (Homo sapiens, UniProt P10415, G101V)
test.details: TR-FRET competitive binding assay, BCL2 G101V
measurement.conditions: BCL2 G101V; Ki determined from IC50; read-out: TR_FRET EKI_Bcl2 G101V
measurement.type: Ki (nM)

Sample answers from the record:
Tested system BCL2 G101V (Homo sapiens, UniProt P10415, G101V); Ki recorded for Cc1c(N(C(=O)c2cc(-c3cc4c(cc3C(=O)N3Cc5ccccc5C[C@H]3CN3CCC5(CC5)C3)CN(C(=O)Cc3ccc(OCCN5CCOCC5)cc3F)CC4)n(C)c2C)c2ccc(O)cc2)cc(C#N)n1C was 0.2

Tested system BCL2 G101V (Homo sapiens, UniProt P10415, G101V); Ki recorded for Cc1c(N(C(=O)c2cc(-c3cc4c(cc3C(=O)N3Cc5ccccc5C[C@H]3CN3CCC(F)CC3)CN(C(=O)Cc3ccc(OCCN5CCOCC5)cc3F)CC4)n(C)c2C)c2ccc(O)cc2)cc(C#N)n1C was 0.5

Tested system BCL2 G101V (Homo sapiens, UniProt P10415, G101V); Ki recorded for COc1ccc(N(C(=O)c2cc(-c3cc4c(cc3C(=O)N3Cc5ccccc5C[C@H]3C)CN(C(=O)Cc3ccc(OCCN5CCOCC5)cc3)CC4)n(C)c2C)c2ccc(F)cc2)cc1C#N was 3.8

Tested system BCL2 G101V (Homo sapiens, UniProt P10415, G101V); Ki recorded for Cc1c(N(C(=O)c2cc(-c3cc4c(cc3C(=O)N3Cc5ccccc5C[C@H]3CN3CCC(F)(F)CC3)CN(C(=O)Cc3ccc(OCCN5CCOCC5)cc3F)CC4)n(C)c2C)c2ccc(O)cc2)cc(C#N)n1C was 2.3

Tested system BCL2 G101V (Homo sapiens, UniProt P10415, G101V); Ki recorded for Cc1cc(O)ccc1N(C(=O)c1cc(-c2cc3c(cc2C(=O)N2Cc4ccccc4C[C@H]2C)CN(C(=O)Cc2ccccc2)CC3)n(C)c1C)c1cc(C#N)n(C)c1C was 2.8

Tested system BCL2 G101V (Homo sapiens, UniProt P10415, G101V); Ki recorded for COc1ccc(N(C(=O)c2cc(-c3cc4c(cc3C(=O)N3Cc5ccccc5C[C@H]3C)CN(C(=O)Cc3ccc(OCCN5CCOCC5)cc3)CC4)n(C)c2C)c2ccccc2)cc1C#N was 1.5

[a] Cc1c(N(C(=O)c2cc(-c3cc4c(cc3C(=O)N3Cc5ccccc5C[C@H]3CN3CCCCC3)CN(C(=O)Cc3ccc(OCCN5CCOCC5)cc3)CC4)n(C)c2C)c2ccc(O)cc2)cc(C#N)n1C
[b] Cc1c(N(C(=O)c2cc(-c3cc4c(cc3C(=O)N3Cc5ccccc5C[C@H]3CN3CCCCC3)CN(C(=O)Cc3ccc(COCC5CCOCC5)cc3)CC4)n(C)c2C)c2ccc(O)cc2)cc(C#N)n1C
[c] COCCn1cc(N(C(=O)c2cc(-c3cc4c(cc3C(=O)N3Cc5ccccc5C[C@H]3C)CN(C(=O)Cc3ccc(OCCN5CCOCC5)cc3)CC4)n(C)c2C)c2ccccc2)cn1
[d] Cc1c(C(=O)N(c2ccccc2)c2cnn(C(F)F)c2)cc(-c2cc3c(cc2C(=O)N2Cc4ccccc4C[C@H]2CN2CC4(CCC4)C2)CN(C(=O)Cc2ccc(OCCN4CCOCC4)cc2)CC3)n1C
Rank ascending by Ki. Answer format: the labels, ordered as requested.
a, b, c, d

* * *

system: BCL2 D103Y (Homo sapiens, UniProt P10415, D103Y)
test.details: TR-FRET competitive binding assay, BCL2 D103Y
measurement.conditions: Ki determined from IC50, read-out: TR_FRET EKI_Bcl2 D103Y
pKi: −log10 of the molar value.
measurement.type: pKi

Sample answers from the record:
For COCCn1c(C#N)cc(N(C(=O)c2cc(-c3cc4c(cc3C(=O)N3Cc5ccccc5C[C@H]3C)CN(C(=O)Cc3ccc(OCCN5CCOCC5)cc3)CC4)n(C)c2C)c2ccc(O)cc2)c1C [Example 68] the compound record lists pKi as 9.64

For Cc1c(C(=O)N(c2ccccc2)c2cnn(C)c2)cc(-c2cc3c(cc2C(=O)N2Cc4ccccc4C[C@H]2C)CN(C(=O)Cc2ccc(OCCN(C)C)cc2F)CC3)n1C [Example 239] the compound record lists pKi as 9.88

For Cc1cc(OCCN2CCOCC2)ccc1CC(=O)N1CCc2cc(-c3cc(C(=O)N(c4ccc(O)cc4)c4cc(C#N)n(C)c4C)c(C)n3C)c(C(=O)N3Cc4ccccc4C[C@H]3CN3CCCCC3)cc2C1 [Example 113] the compound record lists pKi as 9.82

For Cc1cc(O)ccc1N(C(=O)c1cc(-c2cc3c(cc2C(=O)N2Cc4ccccc4C[C@H]2C)CN(C(=O)Cc2ccccc2)CC3)n(C)c1C)c1cc(C#N)n(C)c1C [Example 9] the compound record lists pKi as 8.90

For Cc1ncc(N(C(=O)c2cc(-c3cc4c(cc3C(=O)N3Cc5ccccc5C[C@H]3CN3CCCCC3)CN(C(=O)Cc3ccc(OCCN5CCOCC5)cc3F)CC4)n(C)c2C)c2ccc(O)cc2)cc1C#N [Example 177] the compound record lists pKi as 9.92

For Cc1c(N(C(=O)c2cc(-c3cc4c(cc3C(=O)N3Cc5ccccc5C[C@H]3CN3CCCCC3)CN(C(=O)Cc3ccc(OCC(C)N5CCOCC5)cc3F)CC4)n(C)c2C)c2ccc(O)cc2)cc(C#N)n1C (single isomer, unassigned) [Example 135] the compound record lists pKi as 9.68

[P] Cc1c(N(C(=O)c2cc(-c3cc4c(cc3C(=O)N3Cc5ccccc5C[C@H]3CN3CCCCC3)CN(C(=O)Cc3ccc(OCCN(C)CCF)cc3)CC4)n(C)c2C)c2ccc(O)cc2)cc(C#N)n1C [Example 116]
[Q] Cc1c(N(C(=O)c2cc(-c3cc4c(cc3C(=O)N3Cc5ccccc5C[C@H]3CN)CN(C(=O)Cc3ccc(OCCN5CCOCC5)cc3F)CC4)n(C)c2C)c2ccc(O)cc2)cc(C#N)n1C [Example 230]
[R] Cc1c(N(C(=O)c2cc(-c3cc4c(cc3C(=O)N3Cc5ccccc5C[C@H]3C)CN(C(=O)Cc3ccc(OCCN5CCN(CC(F)(F)F)CC5)cc3)CC4)n(C)c2C)c2ccc(O)cc2)cc(C#N)n1C [Example 32]
[S] CCn1c(C#N)cc(N(C(=O)c2cc(-c3cc4c(cc3C(=O)N3Cc5ccccc5C[C@H]3C)CN(C(=O)Cc3ccc(OCCN5CCOCC5)cc3)CC4)n(C)c2C)c2ccc(O)cc2)c1C [Example 41]
Task field, ranking: reported pKi, descending order. Answer format: the labels, ordered as requested.
Q, P, S, R
(Q: 10.18, P: 9.72, S: 9.26, R: 8.98)

Reference for the values: patent US20250179047A1
